assay.details: Plasma pharmacokinetics of ALM201 in Phase I patients (validated LC-MS/MS, Phoenix WinNonlin)
measurement.conditions: human, plasma, sc, 40 mg, Tmax, median, 40 mg SC, day 18 cycle 2, n = 1; plasma LC-MS/MS
No end group written: not given here.
assay.readout: Tmax (h)
Answer in h, number only, no unit symbol.

Enquiry: Assign Tmax to the following record: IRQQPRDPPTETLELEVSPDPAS [ALM201]
Return: 1.03

###

assay.details: Plasma pharmacokinetics of ALM201 in Phase I patients (validated LC-MS/MS, Phoenix WinNonlin)
measurement.conditions: human, plasma, sc, 10 mg, AUC0-t, Gmean (CV), 10 mg SC, day 18 cycle 1, n = 1; plasma LC-MS/MS
No end group written: not given here.
assay.readout: AUC(0-t) (ng·h/mL)
Answer in ng·h/mL, number only, no unit symbol.

Enquiry: Assign AUC(0-t) to the following record: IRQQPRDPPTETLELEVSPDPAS [ALM201]
Return: 817

###

assay.details: Plasma pharmacokinetics of ALM201 in Phase I patients (validated LC-MS/MS, Phoenix WinNonlin)
measurement.conditions: human, plasma, sc, 10 mg, Plasma concentration, geometric mean (CV%), 10 mg SC, day 18 cycle 2, 1.5 h after dosing, n = 1; LC-MS/MS
No end group written: not given here.
assay.readout: level at 1.5 h (ng/mL)
Answer in ng/mL, number only, no unit symbol.

Enquiry: Assign level at 1.5 h to the following record: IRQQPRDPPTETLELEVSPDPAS [ALM201]
Return: 242

###

assay.details: Plasma pharmacokinetics of ALM201 in Phase I patients (validated LC-MS/MS, Phoenix WinNonlin)
measurement.conditions: human, plasma, sc, 80 mg, Plasma concentration, geometric mean (CV%), 80 mg SC, day 18 cycle 1, 5 h after dosing, n = 2; LC-MS/MS
No end group written: not given here.
assay.readout: level at 5 h (ng/mL)
Answer in ng/mL, number only, no unit symbol.

Enquiry: Assign level at 5 h to the following record: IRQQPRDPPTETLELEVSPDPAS [ALM201]
Return: 407

###

assay.details: Plasma pharmacokinetics of ALM201 in Phase I patients (validated LC-MS/MS, Phoenix WinNonlin)
measurement.conditions: human, plasma, sc, 160 mg, Plasma concentration, geometric mean (CV%), 160 mg SC, day 18 cycle 1, 2 h after dosing, n = 3; LC-MS/MS
No end group written: not given here.
assay.readout: level at 2 h

Enquiry: Assign level at 2 h to the following record: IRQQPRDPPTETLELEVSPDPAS [ALM201]
Return: 1200 ng/mL

###

assay.details: Plasma pharmacokinetics of ALM201 in Phase I patients (validated LC-MS/MS, Phoenix WinNonlin)
measurement.conditions: human, plasma, sc, 80 mg, Plasma concentration, geometric mean (CV%), 80 mg SC, day 18 cycle 1, 2 h after dosing, n = 2; LC-MS/MS
No end group written: not given here.
assay.readout: level at 2 h
For clarity, give the value followed by its unit.

Enquiry: Assign level at 2 h to the following record: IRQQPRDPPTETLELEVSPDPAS [ALM201]
Return: 1.06 µg/mL

###

assay.details: Plasma pharmacokinetics of ALM201 in Phase I patients (validated LC-MS/MS, Phoenix WinNonlin)
measurement.conditions: human, plasma, sc, 160 mg, Tmax, median, 160 mg SC, day 1 cycle 1, n = 3; plasma LC-MS/MS
No end group written: not given here.
assay.readout: Tmax (h)
Answer in h, number only, no unit symbol.

Enquiry: Assign Tmax to the following record: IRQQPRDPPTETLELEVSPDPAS [ALM201]
Return: 1.52
